- assayed.system: Amine oxidase [flavin-containing] B (Homo sapiens)
- Sequence (P27338 whole entry): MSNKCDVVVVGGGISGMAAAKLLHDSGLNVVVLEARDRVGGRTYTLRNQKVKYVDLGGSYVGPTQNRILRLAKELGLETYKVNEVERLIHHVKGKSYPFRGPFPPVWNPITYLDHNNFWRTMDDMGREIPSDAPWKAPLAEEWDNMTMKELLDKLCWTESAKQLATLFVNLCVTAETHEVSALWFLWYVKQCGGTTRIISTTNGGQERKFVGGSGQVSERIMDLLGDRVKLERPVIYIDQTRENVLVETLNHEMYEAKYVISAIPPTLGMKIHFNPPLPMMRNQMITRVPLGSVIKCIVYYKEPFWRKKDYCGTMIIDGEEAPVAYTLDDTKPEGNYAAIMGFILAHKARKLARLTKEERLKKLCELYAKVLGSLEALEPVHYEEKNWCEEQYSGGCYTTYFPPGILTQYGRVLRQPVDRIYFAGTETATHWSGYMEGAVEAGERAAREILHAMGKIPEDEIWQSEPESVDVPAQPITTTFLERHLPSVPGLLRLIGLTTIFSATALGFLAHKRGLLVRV
- test.name: Inhibition of recombinant human MAO-B using kynuramine as substrate by fluorescence spectrophotometry
endpoint.name: IC50 (nM)
Numbers only, in nM.

Known results for compounds:
>>> df
                                smiles_repr  quantitative_result
0  O=[N+]([O-])/C=C/c1cccc(OCc2ccc(Cl)cc2)c1                  144
1  O=[N+]([O-])/C=C/c1cccc(OCc2cccc(F)c2)c1                  103
2  O=[N+]([O-])/C=C/c1cccc(OCc2cccc(Br)c2)c1                  262

Moving on to another compound below.
Problem: Consider the compound Cc1cccc(COc2cccc(/C=C/[N+](=O)[O-])c2)c1 and give its measured IC50.
Solution: 565
